# Read-out: Intercellular Adhesion Molecule 1 (ICAM1), ICAM1 (gene 3383)
# Method: BSK_KF3CT_ICAM1: BioMAP Diversity Plus: KF3CT Assay for Intercellular Adhesion Molecule 1 (ICAM1) Biomarker Activity (AID 2283067)
# Measurement Conditions: primary human keratinocytes with fibroblasts; actives raise or lower the signal
Calls of active or inactive are those of the source. Rule for the calls: active = hit-call score of the fitted dose curve at least 0.9, where 1 is the maximum; inactive = score below 0.9.
Return exactly one item of active, inactive

Example entries begin here.
> print(dat)
                                   compound  qualitative.label
1                    CO[Si](OC)(OC)c1ccccc1           inactive
2   CN1C(=O)N(C)C(O)C1O (centres undefined)           inactive
3                       c1ccc(-c2ccccn2)nc1           inactive
4                           CC(C)C(=O)C(C)C           inactive
5  O=C(Nc1ccccc1SSc1ccccc1NC(=O)c1ccccc1)c1ccccc1           inactive

[Q] Fill in: this test's call for CCO[Si](C)(OCC)OCC is ___
[A] inactive

[Q] Call for entry C=CCOCC(O)CCl (centres undefined) :
[A] inactive

[Q] Dear colleague, could you share the recorded outcome for CC1OC1C1CCC2(C)OC2C1 (centres undefined) when you have a moment?
[A] inactive

[Q] Per the assay record, what outcome was assigned to c1ccc2c(c1)ccc1ncccc12 ?
[A] inactive

[Q] Please let me know the test result on file for CCCCCCCCc1ccc(Nc2ccc(CCCCCCCC)cc2)cc1 .
[A] inactive

[Q] I'd appreciate the recorded outcome for CCCCC(CC)COC(=O)c1ccccc1O (centres undefined) from this test.
[A] inactive

[Q] Just curious, what result did C=CC=CC=CCCCCC get here?
[A] inactive

[Q] Could you please tell me the result logged for CCCCCCCCCCCCCCCC[N+](C)(C)CC in this assay?
[A] active

[Q] Write down the call the test reported for this compound. Item: O=C1CCCN1CCO
[A] inactive

[Q] # fetch the recorded call for C=CC(=O)OCC(Br)CBr (centres undefined) here
[A] active

[Q] For S=C(NC1CCCCC1)NC1CCCCC1 , which call appears in the assay record?
[A] inactive

[Q] Called result for C=C[Si](OC(C)=O)(OC(C)=O)OC(C)=O
[A] inactive

[Q] What call does the record list for O=c1c2ccccc2oc2ccccc12 ?
[A] inactive

[Q] // return assay outcome for CCOc1nc(F)cc2nc(S(=O)(=O)Nc3c(Cl)cccc3C(=O)OC)nn12
[A] inactive

[Q] Can you look up the reported call for O=Nc1ccc(O)cc1 for me?
[A] inactive

[Q] Answer briefly: the call reported for C=CCOc1c(Br)cc(Br)cc1Br in this assay.
[A] active

[Q] How did this test come out for C/C=C\C/C=C/CCCCCCCCOC(C)=O ?
[A] active

[Q] Which outcome did this test record for the compound c1ccc2c(c1)ccc1cc3c(ccc4ccccc43)cc12 ?
[A] inactive

[Q] I'd appreciate the recorded outcome for Nc1ccc(N)c(Cl)c1 from this test.
[A] inactive
